This document collects log10 of Ki values reported for Cathepsin L (Homo sapiens).
*1 amine or outer side, *2 acyl side, *3 side chain or, on linkers, in order; H or OH if unused. Where a SMILES comes first, the peptide text is derived from it. [ ]: non-standard residue; d: D form. The star is where a group is joined. ξ: configuration not given here. ξ3Amino2oxobutanoyl = CC(N[*:1])C(=O)C(=O)[*:2]; 2Nal = N[CH](Cc1ccc2ccccc2c1)C(=O)O; X1 = CCC(C)C(N[*:1])C(=O)C(=O)[*:2]; X2 = C=CCOCC(N[*:1])C(=O)C(=O)[*:2]; Ser(allyl) = C=CCOC[CH](N)C(=O)O; Cbz = O=C(OCc1ccccc1)*; PhAc = O=C(Cc1ccccc1)*
Please note: log10 values; quantity Ki; unit µM.

Worked examples follow.
# compound, assay.target, log10 of Ki
measured = [
    ("CCC(C)C(NC(=O)CNC(=O)C(Cc1ccc2ccccc2c1)NC(C)=O)C(=O)C(=O)NC(CC(C)C)C(=O)NC(Cc1ccccc1)C(N)=O (stereo not drawn) [PHELIX338] (Ac-[2Nal]G[X1]LF-NH2; configuration not given here)", "Cathepsin L (Homo sapiens)", 0.46),
    ("CCC(C)C(NC(=O)C(Cc1ccccc1)NC(=O)Cc1ccccc1)C(=O)C(=O)NC(Cc1ccccc1)C(=O)NC(C)(C)C(N)=O (stereo not drawn)", "Cathepsin L (Homo sapiens)", -2.09),
    ("CCC(C)C(NC(=O)C(=O)CCNC(=O)Cc1ccccc1)C(=O)NC(C)(C)C(=O)O (stereo not drawn)", "Cathepsin L (Homo sapiens)", 2.32),
    ("CC(NC(=O)C(Cc1ccccc1)NC(=O)c1ccccc1F)C(=O)C(=O)NC(Cc1ccccc1)C(=O)NC(C)(C)C(N)=O (stereo not drawn)", "Cathepsin L (Homo sapiens)", -1.34),
]

# compound Cc1ccccc1CC(=O)NC(Cc1ccccc1)C(=O)NC(C)C(=O)C(=O)NC(Cc1ccccc1)C(=O)NC(C)(C)C(N)=O (stereo not drawn) ; its log10 of Ki = -2.02

log10 of Ki reported for this compound CC(C)CC(NC(=O)OCc1ccccc1)C(=O)NC(C)C(=O)C(=O)NCC(=O)NC(Cc1ccccc1)C(=O)NCCc1ccccc1 (stereo not drawn) : -2.41

Reported log10 of Ki ( CC(C)CC(NC(=O)C(Cc1ccccc1)NC(=O)OCc1ccccc1)C(=O)NC(C)C(=O)C(=O)NCC(=O)NC(Cc1ccc2ccccc2c1)C(N)=O (stereo not drawn) [PHELIX258] (Cbz-FL[ξ3Amino2oxobutanoyl]G[2Nal]-NH2; configuration not given here) ) = -2.21

CCC(C)C(NC(=O)C(CC(C)C)NC(=O)C(Cc1ccccc1)NC(=O)OCc1ccccc1)C(=O)C(=O)NC(CCCNC(=N)N)C(N)=O (stereo not drawn) [PHELIX268] yielded log10 of Ki of -3.02

The measured log10 of Ki associated with CCC(C)C(NC(=O)C(CC(C)C)NC(=O)CN1CCOCC1)C(=O)C(=O)NC(Cc1ccc2ccccc2c1)C(N)=O (stereo not drawn) reads -1.71

// CC(C)CC(=O)NC(Cc1ccccc1)C(=O)NC(C)C(=O)C(=O)NC(Cc1ccccc1)C(=O)NC(C)(C)C(N)=O (stereo not drawn) : log10 of Ki value = -0.63

Query CCC(C)C(NC(=O)C(CC(C)C)NC(=O)OCc1ccccc1)C(=O)C(=O)NC(Cc1ccc2ccccc2c1)C(=O)N(C)C (stereo not drawn) yields log10 of Ki of -1.54

Lab note: measured log10 of Ki of CCC(C)C(NC(=O)C(=O)C(C)NC(=O)C(Cc1ccccc1)NC(=O)Cc1ccc(-c2ccccc2)cc1)C(=O)NC(C)(C)C(=O)O (stereo not drawn) was 0.39

Entry CC[C@H](C)C(NC(=O)[C@H](CC#N)NC(=O)Cc1ccccc1)C(=O)C(=O)NCC(=O)N[C@@H](Cc1ccc2ccccc2c1)C(N)=O (stereo partly drawn) , log10 of Ki reported as -2.07

// log10 of Ki value for CCC(C)C(NC(=O)C(CC(C)C)NC(=O)OCc1ccccc1)C(=O)C(=O)NCC(=O)NC(Cc1ccc(C#N)cc1)C(N)=O (stereo not drawn) : -2.38

// sample CC(C)CC(NC(=O)Cc1ccccc1)C(=O)NC(C)C(=O)C(=O)NC(C)C(=O)NC(C)(C)C(N)=O (stereo not drawn) , its log10 of Ki was -0.71

Input CC(NC(=O)C(Cc1ccccc1)NC(=O)Cc1ccccc1)C(=O)C(=O)NC(Cc1cccc(F)c1)C(=O)NC(Cc1ccc(-c2ccccc2)cc1)C(N)=O (stereo not drawn) . Output log10 of Ki: -3.85

For C=CCOCC(NC(=O)Cc1ccccc1)C(=O)NC(CC(C)C)C(=O)NC(COCC=C)C(=O)C(=O)NCC(=O)NC(Cc1ccc2ccccc2c1)C(N)=O (stereo not drawn) [PHELIX200] (PhAc-[Ser(allyl)]L[X2]G[2Nal]-NH2; configuration not given here) the compound record lists log10 of Ki as -2.82

Documented log10 of Ki of CC(NC(=O)C(Cc1ccccc1)NC(=O)Cc1ccccc1)C(=O)C(=O)NC(Cc1cccc(C(F)(F)F)c1)C(=O)NC(Cc1ccc(-c2ccccc2)cc1)C(N)=O (stereo not drawn) : -2.72

Quick note, log10 of Ki for CCC(C)C(NC(=O)C(=O)C(C)(C)NC(=O)Cc1ccccc1)C(=O)NC(C)(C)C(=O)O (stereo not drawn) landed at 1.76
